Data provenance: the RNAGym collection of RNA variant scans (doi:10.1093/molbev/msab373)

B1: Azoarcus group I ribozyme (parent)
chain: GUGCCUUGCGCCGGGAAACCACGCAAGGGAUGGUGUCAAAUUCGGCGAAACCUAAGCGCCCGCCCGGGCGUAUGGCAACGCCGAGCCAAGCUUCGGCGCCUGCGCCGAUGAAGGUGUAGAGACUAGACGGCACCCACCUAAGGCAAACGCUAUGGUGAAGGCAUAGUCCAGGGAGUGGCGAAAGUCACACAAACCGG

- Variants of: B1
- ASSAY DETAILS: reverse-splicing fitness (ratio to wild type); higher = more active; in vitro selection; Mg2+ level not given
Kindly note that classification relies on reverse-splicing fitness with these boundaries: category 1 (below 0.009), category 2 (0.009 to below 0.03), category 3 (0.03 or more)

| VARIANT DESIGNATION | GROUP LABEL |
| --- | --- |
| A120C C150U C169A | category 2 |
| C82G A111U A120U A145U C169G | category 1 |
| C82A A111C A145G C150A C169G | category 1 |
| C82A A111U A120C A145G C150U C169G U176A | category 2 |
| A111C A120C A145G C150U C169A U176A | category 2 |
| C82U A145G C169A U176C | category 2 |
| C82U A111C A145C C169U U176C | category 2 |
| C82U A120U A145C C150U C169U U176A | category 1 |
| C82U A111G A120G A145U C150A C169A U176A | category 2 |
| C82U A111C A145U U176C | category 3 |
| A111G A120G A145G C169G U176A | category 3 |
